Source listed as PubChem BioAssay (Tox21).

assayed system: 5-hydroxytryptamine receptor 2A (Homo sapiens) (UniProt P28223)
Sequence (P28223 whole entry, looked up): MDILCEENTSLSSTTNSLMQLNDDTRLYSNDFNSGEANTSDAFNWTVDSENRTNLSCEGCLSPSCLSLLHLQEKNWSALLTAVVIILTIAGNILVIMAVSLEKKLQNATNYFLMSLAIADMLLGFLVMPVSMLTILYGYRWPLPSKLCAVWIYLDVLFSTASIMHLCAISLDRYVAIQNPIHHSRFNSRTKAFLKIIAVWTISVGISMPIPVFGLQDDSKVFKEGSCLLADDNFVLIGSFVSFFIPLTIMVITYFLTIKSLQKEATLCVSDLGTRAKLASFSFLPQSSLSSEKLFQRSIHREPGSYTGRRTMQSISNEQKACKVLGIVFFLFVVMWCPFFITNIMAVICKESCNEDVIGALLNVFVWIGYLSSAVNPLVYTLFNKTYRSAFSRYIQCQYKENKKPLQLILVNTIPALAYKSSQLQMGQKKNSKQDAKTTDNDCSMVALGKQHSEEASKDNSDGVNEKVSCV
assay details: 5-hydroxytryptamine receptor 2A (HTR2A) small molecule agonists, cell-based qHTS assay (AID 1963587); note: nearly all actives have a fitted effect of over 30% in size
condition info: HTR2A-CHO cells, calcium flux fluorescence, agonist mode; series mostly up to 76.8 µM
Results filed as inconclusive are left out. The source made the active and inactive calls. Calls come from the whole dose curve.
Outcomes you can answer with include only these: active, inactive

Please review the entries below; each comes with its answer.
O=C(O)c1cc(Br)c(O)c(Br)c1
inactive
O=C1CCCc2c1cc1ccc3cccc4ccc2c1c34
inactive

Problem: Call for entry Oc1ccc2ccccc2c1 :
Solution: inactive

Problem: Call for entry C[C@H](CCC(=O)O)[C@H]1CC[C@H]2[C@@H]3CC[C@@H]4C[C@H](O)CC[C@]4(C)[C@H]3C[C@H](O)[C@]12C :
Solution: inactive

Problem: Call for entry CCCCNc1ccc(C(=O)OCCOCCOCCOCCOCCOCCOCCOCCOCCOC)cc1 :
Solution: inactive

Problem: Call for entry CNC(=S)NC :
Solution: inactive

Problem: Call for entry OCCCCCCCCCCCCBr :
Solution: inactive
